# tested-system: h-P2X4 (Homo sapiens, UniProt Q99571)
# Sequence (Q99571 1-388): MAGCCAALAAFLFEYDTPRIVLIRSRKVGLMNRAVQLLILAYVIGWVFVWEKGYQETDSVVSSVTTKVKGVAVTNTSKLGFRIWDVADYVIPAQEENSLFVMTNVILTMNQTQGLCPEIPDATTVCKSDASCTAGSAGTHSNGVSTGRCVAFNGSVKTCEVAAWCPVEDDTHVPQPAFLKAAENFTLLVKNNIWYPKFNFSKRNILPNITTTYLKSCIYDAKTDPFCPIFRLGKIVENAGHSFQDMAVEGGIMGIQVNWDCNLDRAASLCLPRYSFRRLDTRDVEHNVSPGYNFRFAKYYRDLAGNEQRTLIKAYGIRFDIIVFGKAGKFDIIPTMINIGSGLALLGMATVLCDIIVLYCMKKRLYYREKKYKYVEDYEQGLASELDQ
# protocol-description: Ca2+ flux assay h-P2X4
# condition-info: read-out: h-P2X4 IC50 ± SEM; Ca2+ flux, n = 3
pIC50: −log10 of the molar value.
metric: pIC50

Record excerpt, results attached:
O=C(NC(=S)Nc1cc([N+](=O)[O-])ccc1Cl)C12CC3CC(CC(C3)C1)C2 ... 5.89
O=C(NC(=S)Nc1cccnc1Cl)C12CC3CC(CC(C3)C1)C2 ... 5.89
Cc1ccc(C(=O)Nc2ccc(S(=O)(=O)O)c3cc(S(=O)(=O)O)cc(S(=O)(=O)O)c23)cc1NC(=O)c1cccc(NC(=O)Nc2cccc(C(=O)Nc3cc(C(=O)Nc4ccc(S(=O)(=O)O)c5cc(S(=O)(=O)O)cc(S(=O)(=O)O)c45)ccc3C)c2)c1 [Suramin, reference compound] ... 5.25
O=C(NC(=S)Nc1cc(Cl)c(O)c(Cl)c1)C12CC3CC(CC(C3)C1)C2 ... 5.89
Cc1ccc(NC(=S)NC(=O)C23CC4CC(CC(C4)C2)C3)c(Br)c1 ... 5.81

P = COc1ccc(NC(=S)NC(=O)C23CC4CC(CC(C4)C2)C3)cc1OC
Q = CC(C)c1ccc(NC(=S)NC(=O)C23CC4CC(CC(C4)C2)C3)c(Br)c1
R = O=C(NC(=S)Nc1ccccc1O)C12CC3CC(CC(C3)C1)C2
Arrange these molecules by their pIC50, starting with the largest number. Hello, could you send the labels back in the order asked? Thank you.
Q, R, P
